# ASSAY REMARKS: In vitro Neutral Red cytotoxicity assay, MRC-5
# Assay type: cell-based, human
# CONDITION SET: human, MRC-5 cells
REPORTED ENDPOINT: IC50 at 72 h

Q: Please list IC50 at 72 h recorded for the compound CC[C@H](CC[C@@H](C)[C@H]1CC[C@H]2[C@@H]3CC=C4C[C@@H](O)CC[C@]4(C)[C@H]3CC[C@]12C)C(C)C
Ans: > 100 µg/mL
